assay: soluble on expression in E. coli; label from the status in PepcDB or PDB records
reported.endpoint: soluble on expression in E. coli

MVSMNMFEEVEVEAYVYPTEDIEKVKKAMLNLVPGLKFEAFDKGEYMILVGRTRDKRALQRLYELFRGQQILDTARMMLEEGYFGEEIIIKVHKQVAYVGKVNFNEESPLGPITIIIRTKEPQKLMKWLAPRTKDGVPIEAAALEHHHHHH | not soluble
MVHTADNAWRAHIPLMYREDFLCSSGVARWNEEFPRHCVVSQHDRHKTKSVLVILFLIAMRNIKNNRGTFTRIKDRLSSALKSPASLFRRSPEISLREDILSWKKSPHSLAASEYGGSDLLVQFLKQQTSDDYVDFWLESGEYRWTRTKPGRKRDIEAQRIYDKFVYGECPRKIAHLEKMCFVSRQGPTGRDVFICAQAYVGTNFPKDSYKKFLQDPIYLNLLKTVSSGATQLNE | not soluble

###

assay: soluble on expression in E. coli; label from the status in PepcDB or PDB records
reported.endpoint: soluble on expression in E. coli

SLNILFDIGHPKDVNVFKNVIWKLQERGHEIKIVARAKENTKRVLEEYGFEYEVCKYYKTMSGKALGIITNDIHLYNIAKKFQPDIFVSPGSPYSAHVSRLLRKPHIAFSDTEIAGLVMKLTFPFTDKIYTSSSFYLDLGPKQIRFNGYYELAYLHSNYFTPNRDVLKKYNLDEGYIILRLSALSSHHDIGAKGFTFSSEEELIDFIRELERYGRVIVSSETKQWKTISDYELKFKPGDLHDLLYYSKMCIGEGATMASEAAILGVPAIYVSNTHRGYLDELETYELAFTIQEREEALKKAKSLLEEDSLVKNSKEKREKLLKEKTDVVEFMVNAIEGSYKL | soluble
MVAVKREFELSHVFKDVSKLEDGNTFYGPEEEHFNVQWRIVLIHQKEDVAVFLRYLHPKNEQAPWKIDSEFTLKLSNSSGKSVTKTGSDIWNSYDALGFCDVFEWDSLLKDYLIDDVIIIEVAVKIKNMSGIPKKKLKSFERSNEEFSDVILAVGDKKFFVLRKFLASHSTYFETLLLGNFAEADKSEVKLQDINSTDFQNLMEVRYGEYAIDEETVDGILHLAHLYDMPFPIKRCEEFLVDSSEKSTKEKLKVAKKYQLENLKASCLAKINTLEEIKAALAGDLDEMDPSVVHALFRKSLALH | not soluble
MGSDKIHHHHHHMKIVYFVDGLNRGGVESVVCHLSSSFAKLRNKIYIICLHKDMNDLHLEIPEYISVFYLPFESNRNHHVNYIRYLPNLVDLLKKIKPDIVHAHNSSFSYFFLSIGILLSRTVPVNIRSIHFSGFFLEKRTIEDKIRFIFDWCACRLLKTIIISVGPTVSRVVKRLYTSNQHLTIVNGIDTKEKFCKRNLTKSCMGISEDKYVAVYVARICEGKNHDTLIKAWEIVTQYHPSALLLFIGDGPLKEQYQSVVHEKSLDDKITFTGSIPNIVEYLSIADVGVFPSESEGLPLVLMEMMAVELPVVASKIPSCCDLIEENVNGILYETYDYKDLANKILSVLCDNELKKKLGEQAKLLVCNHYSIENMINRHNILYQKLLLKQNFTDAYN | not soluble
MGKARGVNNGVNESSLGYLFGSGQPSSAAAATMGTTTTTTTTTTTDGTGGRPITTTTTTVTDNKKTSAGVRGSPNNYFRSEGQNCGNFLTDRPSTKVHAAPGGGSSLDYLFGGPSPAGSGNK | not soluble

The measured soluble on expression in E. coli associated with DNDSAPKEPTGPVTLIFTDIESSTALWAAHPDLMPDAVATHHRLIRSLITRYECYEVKTVGDSFMIASKSPFAAVQLAQELQLCFLRLDWETNAVDESYREFEEQRAEGECEYTPPTASLDPEVYSRLWNGLRVRVGIHTGLCDIRYDEVTKGYDYYGRTSNMAARTESVANGGQVLMTHAAYMSLSGEDRNQLDVTTLGATVLRGVPEPVRMYQLNAVPGRNFAALRLDR reads soluble

###

assay: soluble on expression in E. coli; label from the status in PepcDB or PDB records
reported.endpoint: soluble on expression in E. coli

Known soluble on expression in E. coli results, listed for orientation:
MVIILRHVRVFNGVNECDIYLIGTAHVSKDSIEEVEKIISSVSPEGIAVELDDRRFFSLITNEEKKVDLKKVLKEGNFLKFFIYLILANSQKKIGESFGIKPGSEMKKAIEIASKYGLPIYLIDRDIDITLSRLMDRMTFKEKMKIFWELLNSDEEDLELDDDLLNDMVKNPEKFIKLLKEISPTIYEVLVDERDRFMAKRLFELSKNKNSLVAVVGAGHVEGIVRYLKKLENGNDIDLMELIKVKKRK | not soluble
MSESQLRKGAVELIVLGLLSSRPSYGGQLVERFREEAGLEISTGTLYPLLARLRKSGLVVTAWEESPVGPPRKIYKLAKPGKNRLLQMRREWEALDCAVKRTTQKGIR | not soluble
TEQPCVEKAPAYQRFHALAQPGLPGLVLPYKYQVLVEMFRSMDTIVSMLHNRSETVTFAKVKQGVQEMMRKRFEERNVGQIKTVYPTSYRFRQECNVPTFKDSIKRSDYQLTIEPLLGQEAGGATQLTATCLLQRRQVFRQNLVERVKEQHKVFLASLNPPMAVPDDQLTRWHPRFNVDEVPDIEPAELPQPPVTEK | soluble
MGITTNLISEVSKFYYALKYHAKFMSLGELGCYASHYSLWEKCIELNEAICILEDDITLKEDFKEGLDFLEKHIQELGYIRLMHLLYDASVKSEPLSHKNHEIQERVGIIKAYSEGVGTQGYVITPKIAKVFLKCSRKWVVPVDTIMDATFIHGVKNLVLQPFVIADDEQISTIARKEEPYSPKIALMRELHFKYLKYWQFVLEHHHHHH | soluble
MSAMENESNKDTNTETKSVPEEMEASKYVGQGFQPPAEKDAIEFAKKHRKEFEKVGEQFFKDNFGLKVKATNVVGKDDGVEVYVHCEDHGIVFNASLPLYKDAIHQKGSMRSNDNGDDMSMMVGTVLSGFEYRAQKEKYDNLYKFFKENEKKYQYTGFTKEAINKTQNVGYQNEYFYITYLSRNLKEYRKYYEPLIHKNDKEFKEGMQQARKELDYTANTDAVSTLFSTKKNFTKDNTVDDVIELSNKLKEKPNMPQKSQVTIQLGKSSINTKKPFYDDINPIEGLEHHHHHH | soluble

Now take the following sequence into account.
For MGSDKIHHHHHHMLATTIGSIAMRRRVSSLVKVRPAGAATQPALGLRVPLVALVQALAVAEHLNFRHAADALGISQSSVSTRIKQLEQDLGVQLFERRHRGVRLTEAGQHFLEHVATGIEHLDHAVRTAGAIARGERGRLRVGLYSSIFAGFLAELLGQFRGQYPTVDLQIMEGRARDTIRAVREARLDVAFVVGVPKVSDCHSKPLWTEALFVALPERHALAEAEGVTWPALSGASFLARTGGPGPQVHDHIVLRLAGHWCQPRIQRFDVERDTLMSMVAQGYGITLTSEAAAQVPFPGVVFRPVLDETELITFSALWSPHNRCQTLLHLLALAEQKSEGRSLGI the sequence record lists soluble on expression in E. coli as not soluble

###

test: soluble on expression in E. coli; label from the status in PepcDB or PDB records
reported.endpoint: soluble on expression in E. coli

MELNDMAQFNEPISSQLLAIDENLTQLVTDIDILSSVNPLNYAQERERFISNKYSQEPNFQYQKAPLDTHQSKRRLYELPLEHIEDTQLQKLYEDVIQSYADKLDQVNTIGTQEFLYNSLRYYGEPSAKDIANAHFILHLPTEEESKPEHDSRSIAHFMQSFADKNGYECEIQILDGMLANALVSGSRVKINSAAHITTDELEALAHHEMGVHLLTTLNGRQQPLKVLSLGCPANTNTQEGLAILCEYLSGHFSIKRLRTLALRVLAVESMIKERDFRHTFMLLKEQYKASDVQAFTITSRVYRGGGLTKDYLYLRGFREVLNAYDKLGDDFSLLLCGKTELKYFDLIRSLVNKGIFTQPKFISPALSTPKQTNPIHRYIVSALKLEHHHHHH | soluble
MKKVIGIGEYAVMKNPGVIVTLGLGSCVAVCMRDPVAKVGAMAHVMLPDSGGKTDKPGKYADTAVKTLVEELKKMGAKVERLEAKIAGGASMFESKGMNIGARNVEAVKKHLKDFGIKLLAEDTGGNRARSVEYNIETGKLLVRKVGGGEQLEIKEI | soluble

###

test: soluble on expression in E. coli; label from the status in PepcDB or PDB records
reported.endpoint: soluble on expression in E. coli

MLRGIVVVDFSHYLPGPFASWRLAQLGAEVIKIEPPSGDRLRPFAEGRLFAAYNAGKKSIGLDLKTDAGREQARRLAARADVVIESFRPGVMARLGLGYDDMCRMNEQIIYCSISGFGQQSGRSLLGSHDLNYMALSGLLAQLADERGRPVHPKITLADFIGGMAAAERILAALFARERTGKGAHLDVSLVDGLAAMMAGHFAIEHGGGPKTGLSELSGEVVCYQLYETKDGRYMSLAALEPHFWRRFCEAVGHPEWTEAQWAPARSGEAVYDELAALFREKTLDEWSAFAEAVDVCLAPVLETGEAKALFADSRLRHLVRLQPGGVWTAAHGPDGQWGGGEPPKVNEHAHLVKGEE | not soluble
MGSDKIHHHHHHMNFEVLVKHISTIQNTLQAQAAHAVNLALTSRNWLMGCYIVEFEQNGEDRAAYGEQLLKKLEQRLKTKGLNERRFREFRRLYLVYPQLKESVTQYIASQIQIRQSLTAEFTEPIRRLVTAESENGVWKLSTEHPQTETWMIPADRLFNRLSSTHLNTISGIENPIKRAFYEMETIRGCWSVKELERQIASLYYERSGLSKNKEALSALVQQQVTLLQPKDVINTPVTLEFLGLNERALVTENDLEQSILDNLQHFLLEMGHGFCFEARQKRILIDEDYFFADLVFYHRILKCHIIVELKIDKFRHEYASQLNMYLNYFKAEVMQPDDNPPIGILLCTEKGDTLVKYATAGLDPNIFVQKYMIELPSEEEIKRFILGVNF | not soluble
MGSDKIHHHHHHMRKDEYRATLLEPNVWHIADYRGDSMYLVVGEEKALLVDTGMGEGDLKGFVRSITEKPVEVVLTHAHWDHIMQANQFEKVYLNHRDFQIIELFKINVNYENFLNVKEGDRFDLGGRTLEVIEVPGHTPGSIVLLDRENRLLFSGDSVGAGHTWMHLPGCLPLREYLKSLKKLKETDSFEKIYHGHLTGTQLKPFGPDYLDDLIKAVEGVIDGSLRGEP | not soluble
